# run description: Cytotoxicity against african green monkey Vero cells
# Type: cell-based
# test conditions: chlorocebus sabaeus
Decide using CC50 alone. Strictly below 100 µg/mL: true (1). Equal to or above 100 µg/mL: false (0).

See these solved cases before continuing.
compound: CCCCCCCCNC(=O)[C@@]1(C)CC[C@]2(C)CC[C@]3(C)C(=CC(=O)[C@@H]4[C@@]5(C)CC[C@H](OC(C)=O)C(C)(C)[C@@H]5CC[C@]43C)[C@@H]2C1
category label: false (0)

compound: COC(=O)[C@@]1(C)CC[C@]2(C)CC[C@]3(C)C(=CC(=O)[C@@H]4[C@@]5(C)CC[C@H](OC(C)=O)C(C)(C)[C@@H]5CC[C@]43C)[C@@H]2C1
category label: true (1)

compound: CCOC(=O)[C@@]1(C)CC[C@]2(C)CC[C@]3(C)C(=CC(=O)[C@@H]4[C@@]5(C)CC[C@H](OC(C)=O)C(C)(C)[C@@H]5CC[C@]43C)[C@@H]2C1
category label: true (1)

compound: CC(=O)O[C@H]1CC[C@]2(C)[C@H]3C(=O)C=C4[C@@H]5C[C@@](C)(C(=O)NCc6ccccc6)CC[C@]5(C)CC[C@@]4(C)[C@]3(C)CC[C@H]2C1(C)C
category label: false (0)

Given the entry CCN(CC)C(=O)N1CCN(C)CC1.O=C(O)CC(O)(CC(=O)O)C(=O)O [DIETHYLCARBAMAZINE CITRATE] , would its reported CC50 be below 100 µg/mL?
false (0)

---

# System: Brugia malayi
# run description: Antifilarial activity against microfilariae Brugia malayi assessed as inhibition of motility after 24 hrs by microscopic analysis
# Assay type: functional, organism-based
readout: LC100 (µM)
Write the number in µM without appending the unit.

Check out these entries, answers already filled in.
molecule: CC(=O)O[C@H]1CC[C@]2(C)[C@H]3C(=O)C=C4[C@@H]5C[C@@](C)(C(=O)NCc6ccccc6)CC[C@]5(C)CC[C@@]4(C)[C@]3(C)CC[C@H]2C1(C)C
readout: LC100
measured value: 50
//
molecule: COC(=O)[C@@]1(C)CC[C@]2(C)CC[C@]3(C)C(=CC(=O)[C@@H]4[C@@]5(C)CC[C@H](OC(C)=O)C(C)(C)[C@@H]5CC[C@]43C)[C@@H]2C1
readout: LC100
measured value: 25
//
molecule: CCCCCCCCNC(=O)[C@@]1(C)CC[C@]2(C)CC[C@]3(C)C(=CC(=O)[C@@H]4[C@@]5(C)CC[C@H](OC(C)=O)C(C)(C)[C@@H]5CC[C@]43C)[C@@H]2C1
readout: LC100
measured value: 100

I would be grateful if you could share the reported LC100 for `CC1(C)[C@@H](O)CC[C@]2(C)[C@H]3C(=O)C=C4[C@@H]5C[C@@](C)(C(=O)O)CC[C@]5(C)CC[C@@]4(C)[C@]3(C)CC[C@@H]12` .
12.5

I would be grateful if you could share the reported LC100 for CCN(CC)C(=O)N1CCN(C)CC1.O=C(O)CC(O)(CC(=O)O)C(=O)O [DIETHYLCARBAMAZINE CITRATE] .
500

I would be grateful if you could share the reported LC100 for `CCOC(=O)[C@@]1(C)CC[C@]2(C)CC[C@]3(C)C(=CC(=O)[C@@H]4[C@@]5(C)CC[C@H](OC(C)=O)C(C)(C)[C@@H]5CC[C@]43C)[C@@H]2C1` .
50

Reference source for all entries: ChEMBL document CHEMBL2375261
